# Test system: AKT protein phosphorylated on serine 473 (P-AKT-S473) in PC3 human prostate carcinoma cells
# experiment description: pAKT expression in PC3 cells measured by MSD Multi-spot Biomarker Detection (Test B)
# Assay type: cell-based
# setup conditions: PC-3, inhibition of AKT Ser473 phosphorylation, 1 to 2 h incubation, MSD sandwich immunoassay, absolute IC50, mean of two experiments
test readout: IC50 (nM)

// known answers, use as guide
- mol smiles: "O=c1cc(N2CCOCC2)nc(Cc2nc3c(O)cccc3o2)[nH]1"
  value units: "nM"
  IC50: 44
- mol smiles: "O=c1cc(N2CCOCC2)nc(Cc2nc3cc(F)c(Cl)cc3[nH]2)[nH]1"
  value units: "nM"
  IC50: 256
- mol smiles: "Cn1c(Cc2nc(N3CCOCC3)cc(=O)[nH]2)nc2cc(Cl)c(Cl)cc21"
  value units: "nM"
  IC50: 65
- mol smiles: "O=c1cc(N2CCOCC2)nc(Cc2nc3ccc(F)c(F)c3o2)[nH]1"
  value units: "nM"
  IC50: 28
- mol smiles: "COc1ccc2nc(Cc3nc(N4CCOCC4)cc(=O)[nH]3)oc2c1"
  value units: "nM"
  IC50: 18

P = COCCn1c(Cc2nc(N3CCOCC3)cc(=O)[nH]2)nc2cc(F)ccc21
Q = Cn1c(Cc2nc(N3CCOCC3)cc(=O)[nH]2)nc2ccc(Br)cc21
R = O=c1cc(N2CCOCC2)nc(Cc2nc3cc(Cl)c(Cl)cc3[nH]2)[nH]1
S = O=c1cc(N2CCOCC2)nc(Cc2nc3ccc(Cl)cc3[nH]2)[nH]1
IN: Sort the compounds on IC50; start with the lowest figure. Respond with an ordered listing of the labels, as requested.
OUT: Q, S, P, R
(Q: 28 nM, S: 63 nM, P: 109 nM, R: 193 nM)
